Origin of values: PubChem BioAssay AID1963438

Would you kindly list IC50 for each of these molecules?
# System: NCI-H510 multicellular tumor spheroid growth, % test/control
# procedure text: Anticancer human tumor NCI-H510 cell line growth inhibition [Asc];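 further: spheroids exposed to agents for 7 days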
# condition summary: curve of first compound; second compound 0.949 µM

What value of IC50 has been reported for the following molecule? O=C(c1ccc(F)c(F)c1Nc1ccc(I)cc1F)N1CC(O)([C@@H]2CCCCN2)C1 + CCN1C(C(=O)NC23CCC(C(=O)O)(CC2)CC3)C(c2cccc(Cl)c2F)C2(C(=O)Nc3cc(Cl)ccc32)C12CCCCC2 > 1 µM

What value of IC50 has been reported for the following molecule? Cc1nc(N2CCC3(CC2)COC(C)C3N)c(CO)nc1Sc1ccnc(N)c1Cl (centres undefined) + CCN1C(C(=O)NC23CCC(C(=O)O)(CC2)CC3)C(c2cccc(Cl)c2F)C2(C(=O)Nc3cc(Cl)ccc32)C12CCCCC2 > 3 µM

What value of IC50 has been reported for the following molecule? C#Cc1c(F)ccc2cc(O)cc(-c3ncc4c(N5CC6CCC(C5)N6)nc(OCC56CCCN5CC(F)C6)nc4c3F)c12 (centres undefined) + CCN1C(C(=O)NC23CCC(C(=O)O)(CC2)CC3)C(c2cccc(Cl)c2F)C2(C(=O)Nc3cc(Cl)ccc32)C12CCCCC2 > 10 µM

What value of IC50 has been reported for the following molecule? COc1c(OCCCN2CCOCC2)ccc2c3n(c(=NC(=O)c4cnc(N)nc4)nc12)CCN3 + CCN1C(C(=O)NC23CCC(C(=O)O)(CC2)CC3)C(c2cccc(Cl)c2F)C2(C(=O)Nc3cc(Cl)ccc32)C12CCCCC2 > 1 µM

====

# Test system: NCI-H510 multicellular tumor spheroid growth, % test/control
# procedure text: Anticancer human tumor NCI-H510 cell line growth inhibition [Asc];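 further: spheroids exposed to agents for 7 days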;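 on viability, T/C: 100% = DMSO vehicle control wells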
# condition summary: second compound 0.316 µM; first compound 3 µM; stronger effect = lower value
Would you kindly list viability, T/C for each of these compounds?
Write the number in % without appending the unit.

What is its viability, T/C for NCI-H510 multicellular tumor spheroid growth, % test/control? Entry: CCN1C(C(=O)NC23CCC(C(=O)O)(CC2)CC3)C(c2cccc(Cl)c2F)C2(C(=O)Nc3cc(Cl)ccc32)C12CCCCC2 (centres undefined) + Cc1c(S(C)(=O)=O)c(-c2cc(F)cc(N3CCN(c4ccc(NS(=O)(=O)c5ccc(NC(CCN6CCC(C(=O)OCCCP(=O)(O)O)CC6)CSc6ccccc6)c(S(=O)(=O)C(F)(F)F)c5)cc4)CC3)c2)c(-c2ccc(Cl)cc2)n1C(C)C 83.6

What is its viability, T/C for NCI-H510 multicellular tumor spheroid growth, % test/control? Entry: Cc1nc(N2CCC3(CC2)COC(C)C3N)c(CO)nc1Sc1ccnc(N)c1Cl (centres undefined) + CNC(C)C(=O)NC1CN(S(=O)(=O)c2cccc(S(=O)(=O)N3CCC4CCC(C(=O)NC(c5ccccc5)c5ccccc5)N4C(=O)C(NC(=O)C(C)NC)C3)c2)CCC2CCC(C(=O)NC(c3ccccc3)c3ccccc3)N2C1=O 95

What is its viability, T/C for NCI-H510 multicellular tumor spheroid growth, % test/control? Entry: CCN1C(C(=O)NC23CCC(C(=O)O)(CC2)CC3)C(c2cccc(Cl)c2F)C2(C(=O)Nc3cc(Cl)ccc32)C12CCCCC2 (centres undefined) + CNC(C)C(=O)NC1CN(S(=O)(=O)c2cccc(S(=O)(=O)N3CCC4CCC(C(=O)NC(c5ccccc5)c5ccccc5)N4C(=O)C(NC(=O)C(C)NC)C3)c2)CCC2CCC(C(=O)NC(c3ccccc3)c3ccccc3)N2C1=O 107

What is its viability, T/C for NCI-H510 multicellular tumor spheroid growth, % test/control? Entry: Cc1nc(N2CCC3(CC2)COC(C)C3N)c(CO)nc1Sc1ccnc(N)c1Cl (centres undefined) + Cc1c(S(C)(=O)=O)c(-c2cc(F)cc(N3CCN(c4ccc(NS(=O)(=O)c5ccc(NC(CCN6CCC(C(=O)OCCCP(=O)(O)O)CC6)CSc6ccccc6)c(S(=O)(=O)C(F)(F)F)c5)cc4)CC3)c2)c(-c2ccc(Cl)cc2)n1C(C)C 132
